Please respond with reported Activity for every item in the list.
- Tested on: COS-1
- Method: Induction of necrosis in Chlorocebus aethiops COS1 cells assessed as LDH release at 1 to 30 uM after 24 hrs by LDH assay relative to control
- Assay type: cell-based
- Test Conditions: cos-1, 24 h

Prompt: Consider the compound `CCC(=O)N(Cc1ccc(N(CC)CC)cc1)c1c(-c2ccccc2)noc1C` and give its measured Activity.
Completion: < 8%

Prompt: Consider the compound `CC[N+](O)(CC)c1ccc(NC(=O)c2c(-c3ccccc3)noc2C)cc1.O=C([O-])c1cccc(Cl)c1` and give its measured Activity.
Completion: < 8%

Prompt: Consider the compound `CCN(CC)c1ccc(NC(=O)c2cnoc2-c2ccccc2)cc1` and give its measured Activity.
Completion: < 8%

Prompt: Consider the compound `CCN(CC)c1ccc(NC(=O)c2c(-c3ccc(F)cc3)noc2C)cc1` and give its measured Activity.
Completion: < 8%

Prompt: Consider the compound Cc1onc(-c2ccccc2)c1C(=O)N(C1=NC(C)CS1)c1ccc(Cl)cc1 (stereo not given) and give its measured Activity.
Completion: < 8%

Prompt: Consider the compound `CCN(CC)c1ccc(NC(=O)c2c(C)noc2-c2ccccc2)cc1` and give its measured Activity.
Completion: < 8%

Prompt: Consider the compound `CCN(CC)c1ccc(NC(=O)c2c(-c3ccsc3)noc2C)cc1` and give its measured Activity.
Completion: < 8%

Prompt: Consider the compound `COc1ccc(-c2cc(N)nn2C(=O)c2c(-c3ccccc3)noc2C)cc1` and give its measured Activity.
Completion: < 8%

Prompt: Consider the compound `CCN(CC)c1ccc(NC(=O)c2cnc3ncccn23)cc1` and give its measured Activity.
Completion: < 8%

Prompt: Consider the compound `CCN(CC)c1ccc(CN(C(=O)C(F)(F)F)c2c(-c3ccccc3)noc2C)cc1` and give its measured Activity.
Completion: < 8%
